Reference source: patent US10954221B2

tested.on: GLP1R (Homo sapiens, UniProt P43220)
assay.procedure: GLP1R cAMP assay (HTRF), HEK293/GLP-1R/CRE/Luc, Clone 4
Sequence (P43220 24-463): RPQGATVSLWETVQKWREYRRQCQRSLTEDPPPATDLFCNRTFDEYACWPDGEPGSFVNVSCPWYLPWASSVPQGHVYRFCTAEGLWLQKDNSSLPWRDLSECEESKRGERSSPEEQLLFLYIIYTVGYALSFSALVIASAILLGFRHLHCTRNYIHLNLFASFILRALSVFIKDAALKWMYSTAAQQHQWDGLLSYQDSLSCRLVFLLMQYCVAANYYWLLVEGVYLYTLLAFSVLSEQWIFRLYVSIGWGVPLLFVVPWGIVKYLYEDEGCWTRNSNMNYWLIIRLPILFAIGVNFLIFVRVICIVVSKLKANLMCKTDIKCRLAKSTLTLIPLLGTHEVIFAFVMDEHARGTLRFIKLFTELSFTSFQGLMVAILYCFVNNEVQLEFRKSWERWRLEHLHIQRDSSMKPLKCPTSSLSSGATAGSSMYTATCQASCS
pEC50: −log10 of the molar value.
observation.type: pEC50

>  <compound>
N#Cc1ccc(COc2cccc(-c3ccc(Nc4nc5ccc(C(=O)O)cc5n4C[C@@H]4CCO4)c(F)c3)n2)c(F)c1 [Compound 320]

>  <pEC50>
6.82 to 7.82

$$$$
>  <compound>
O=C(O)c1ccc2nc(Cc3ccc(-c4cccc(OCc5ccc(Cl)cc5F)n4)cc3F)n(C[C@@H]3CCO3)c2n1 [Compound 281]

>  <pEC50>
> 7.82

$$$$
>  <compound>
O=C(O)c1ccc2nc(CN3CC=C(c4nc(OCc5ccc(Cl)cc5F)cs4)CC3)n(C[C@@H]3CCO3)c2c1 [Compound 246]

>  <pEC50>
6.82 to 7.82

$$$$

Now turn to the next compound.
The value of pEC50 measured for the compound N#Cc1ccc(COc2cccc(-c3ccn(Cc4nc5ccc(C(=O)O)c(F)c5n4C[C@@H]4CCO4)c(=O)c3)n2)c(F)c1 [Compound 322] turned out to be > 7.82

* * *

# β-arrestin internalization Bmax (POC) per record follows
tested.on: GLP1R (Homo sapiens, UniProt P43220)
assay.procedure: β-Arrestin-mediated GLP1R internalization assay (PathHunter U2OS cells)
Type: cell-based
Design: host or cells: PathHunter engineered U2OS cells
condition.set: averaged Bmax where applicable, Percentage of Control GLP-1 (7-37), top 10 μM, 180 min
Sequence (P43220 24-463): as above
Sequence (P32121 whole entry partner): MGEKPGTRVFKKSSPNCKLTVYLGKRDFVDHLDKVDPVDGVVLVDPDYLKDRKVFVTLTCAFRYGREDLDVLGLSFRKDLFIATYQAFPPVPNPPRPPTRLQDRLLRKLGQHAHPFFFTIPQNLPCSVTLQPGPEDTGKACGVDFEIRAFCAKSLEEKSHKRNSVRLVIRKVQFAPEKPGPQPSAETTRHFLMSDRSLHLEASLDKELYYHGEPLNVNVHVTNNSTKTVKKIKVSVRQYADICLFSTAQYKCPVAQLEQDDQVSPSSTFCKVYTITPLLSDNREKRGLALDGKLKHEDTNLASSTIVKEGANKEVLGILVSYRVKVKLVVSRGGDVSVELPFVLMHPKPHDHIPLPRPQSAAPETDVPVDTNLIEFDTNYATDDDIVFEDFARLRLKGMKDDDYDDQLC
// return numeric value only (unit: POC, not printed)

>  <compound.string>
O=C(O)c1ccc2nc(Cc3ccc(-c4nccc(OCc5ccc(Cl)cc5F)n4)cc3F)n(C[C@@H]3CCO3)c2c1

>  <observation.type>
β-arrestin internalization Bmax (POC)

>  <value.observed>
41.8

$$$$

Log: GLP1R (Homo sapiens, UniProt P43220), molecule O=C(O)c1ccc2nc(Cc3ccc(-c4cccc(OCc5ccc(Cl)cc5F)n4)cn3)n(C[C@@H]3CCO3)c2c1 , β-arrestin internalization Bmax (POC) = 3.08

Log: GLP1R (Homo sapiens, UniProt P43220), molecule O=C(O)c1ccc2nc(Cc3ccc(-c4ccc(F)c(OCc5ccc(Cl)cc5F)c4)cc3F)n(C[C@@H]3CCO3)c2c1 , β-arrestin internalization Bmax (POC) = 29.5

Log: GLP1R (Homo sapiens, UniProt P43220), molecule N#Cc1ccc(COc2ncc(F)c(-c3ccc(Cc4nc5ccc(C(=O)O)nc5n4C[C@@H]4CCO4)c(F)c3)n2)c(F)c1 , β-arrestin internalization Bmax (POC) = 22.8

Log: GLP1R (Homo sapiens, UniProt P43220), molecule O=C(O)c1ccc2nc(CN3CC=C(c4csc(OCc5ccc(Cl)cc5F)n4)CC3)n(C[C@@H]3CCO3)c2c1 , β-arrestin internalization Bmax (POC) = 26.6

Log: GLP1R (Homo sapiens, UniProt P43220), molecule O=C(O)c1ccc2nc(Cc3ccc(-c4cccc(OCc5ccc(Cl)cc5F)c4)c(F)c3)n(C[C@@H]3CCO3)c2c1 , β-arrestin internalization Bmax (POC) = 21.6

Log: GLP1R (Homo sapiens, UniProt P43220), molecule O=C(O)c1ccc2nc(Cc3ccc(-c4cccc(OCc5ccc(Cl)cc5F)n4)cc3)n(C[C@@H]3CCO3)c2c1 , β-arrestin internalization Bmax (POC) = 27.3

* * *

tested.on: GLP1R (Homo sapiens, UniProt P43220)
Design: dose or concentration left out as unconfirmed
condition.set: CHO-K1, […], read-out: β-arrestin recruitment Bmax (%)
Rule: Emax under 30% gives F, otherwise T.

>  <molecule>
O=C(O)c1ccc2nc(Cc3ccc(-c4nc(OCc5ccc(Cl)cc5F)ncc4F)c(F)c3)n(C[C@@H]3CCO3)c2c1

>  <label>
F

$$$$
>  <molecule>
N#Cc1ccc(COc2nc(-c3ccc(Cc4nc5ccc(C(=O)O)c(F)c5n4C[C@@H]4CCO4)c(F)c3)ncc2F)c(F)c1

>  <label>
T

$$$$
>  <molecule>
N#Cc1ccc(COc2cccc(-c3ccc(Cc4nc5ccc(C(=O)O)nc5n4C[C@@H]4CCO4)cc3F)n2)c(F)c1

>  <label>
T

$$$$
>  <molecule>
O=C(O)c1ccc2nc(Cc3ccc(-c4cccc(OCc5ccc(F)cc5F)n4)c(F)c3)n(C[C@@H]3CCO3)c2n1

>  <label>
T

$$$$

Exam item: Check if Emax >= 30% (inclusive). Item: N#Cc1cnc(COc2cccc(-c3cc(F)c(Cc4nc5ccc(C(=O)O)nc5n4C[C@@H]4CCO4)cc3F)n2)c(F)c1
Marked response: T

Exam item: Check if Emax >= 30% (inclusive). Item: CC1(c2ccc(C#N)cc2F)Oc2cccc(C3=CCN(Cc4nc5ccc(C(=O)O)cc5n4C[C@@H]4CCO4)CC3)c2O1 (stereo partly shown)
Marked response: F

* * *

tested.on: GLP1R (Homo sapiens, UniProt P43220)
Set-up: dose or concentration left out as unconfirmed
condition.set: CHO-K1, […], read-out: β-arrestin recruitment Bmax (%)
observation.type: Emax (%)
// return numeric value only (unit: %, not printed)

A selection of reference data follows.
>  <compound.string>
N#Cc1ccc(COc2nc(-c3ccc(Cc4nc5ccc(C(=O)O)nc5n4C[C@@H]4CCO4)c(F)c3)ccc2F)c(F)c1

>  <tested.on>
GLP1R (Homo sapiens, UniProt P43220)

>  <Emax [%]>
25.5

$$$$
>  <compound.string>
O=C(O)c1ccc2nc(CN3CC=C(c4scnc4OCc4ccc(Cl)cc4F)CC3)n(C[C@@H]3CCO3)c2c1

>  <tested.on>
GLP1R (Homo sapiens, UniProt P43220)

>  <Emax [%]>
17.9

$$$$
>  <compound.string>
O=C(O)c1ccc2nc(Cc3ccc(-c4cccc(OCc5ccc(Cl)cc5F)n4)cc3F)n(C[C@@H]3CCO3)c2n1

>  <tested.on>
GLP1R (Homo sapiens, UniProt P43220)

>  <Emax [%]>
48.5

$$$$

Log: GLP1R (Homo sapiens, UniProt P43220), compound O=C(O)c1ccc2nc(Cc3ccc(-c4cccc(OCc5ccc(Cl)cc5F)n4)cn3)n(C[C@@H]3CCO3)c2c1 , Emax = 1.05

Log: GLP1R (Homo sapiens, UniProt P43220), compound N#Cc1ccc(COc2nc(-c3ccc(Cc4nc5ccc(C(=O)O)cc5n4C[C@@H]4CCO4)c(F)c3)ncc2F)c(F)c1 , Emax = 26.7

Log: GLP1R (Homo sapiens, UniProt P43220), compound O=C(O)c1ccc2nc(Cc3ccc(-c4ncc(F)c(OCc5ccc(Cl)cc5F)n4)c(F)c3)n(C[C@@H]3CCO3)c2c1 , Emax = 37.2

* * *

tested.on: GLP1R (Homo sapiens, UniProt P43220)
assay.procedure: GLP1R cAMP assay (HTRF), HEK293/GLP-1R/CRE/Luc, Clone 4
pEC50: −log10 of the molar value.
observation.type: pEC50

A selection of reference data follows.
>  <compound>
O=C(O)c1ccc2nc(CN3CC=C(c4coc(OCc5ccc(Cl)cc5F)n4)CC3)n(C[C@@H]3CCO3)c2c1 [Compound 248]

>  <pEC50>
< 6.00

$$$$
>  <compound>
O=C(O)c1ccc2nc(Cc3ccc(-c4nc(OCc5ccc(Cl)cc5F)c(F)cc4F)c(F)c3)n(C[C@@H]3CCO3)c2c1 [Compound 77]

>  <pEC50>
> 7.82

$$$$
>  <compound>
O=C(O)c1ccc2nc(Cc3ccc(-c4nc(OCc5ccc(Cl)cc5F)c(F)cc4F)c(F)c3)n(C[C@@H]3CCO3)c2n1 [Compound 306]

>  <pEC50>
> 7.82

$$$$
>  <compound>
O=C(O)c1ccc2nc(Cc3ccc(-c4cccc(OCc5ccc(Cl)cc5F)n4)c(F)c3F)n(C[C@@H]3CCO3)c2c1 [Compound 262]

>  <pEC50>
> 7.82

$$$$
>  <compound>
N#Cc1ccc(COc2cccc(-c3ccn(Cc4nc5ccc(C(=O)O)nc5n4C[C@@H]4CCO4)c(=O)c3)n2)c(F)c1 [Compound 324]

>  <pEC50>
6.82 to 7.82

$$$$
>  <compound>
N#Cc1ccc(COc2ncccc2C2=CCN(Cc3nc4ccc(C(=O)O)cc4n3C[C@@H]3CCO3)CC2)c(F)c1 [Compound 333]

>  <pEC50>
6.82 to 7.82

$$$$
>  <compound>
O=C(O)c1ccc2nc(Cc3ccc(-c4ccc(F)c(OCc5ccc(Cl)cc5F)n4)cc3F)n(C[C@@H]3CCO3)c2n1 [Compound 283]

>  <pEC50>
> 7.82

$$$$
>  <compound>
N#Cc1ccc(COc2nc(-c3ccc(Cc4nc5ccc(C(=O)O)nc5n4C[C@@H]4CCO4)cc3F)ccc2F)c(F)c1 [Compound 289]

>  <pEC50>
> 7.82

$$$$

The value of pEC50 measured for the compound O=C(O)c1ccc2nc(CN3CC=C(c4csc(OCc5ccc(OC(F)(F)F)cc5)n4)CC3)n(C[C@@H]3CCO3)c2c1 [Compound 251] turned out to be 6.82 to 7.82

The value of pEC50 measured for the compound O=C(O)c1ccc2nc(Cc3ccc(-c4cccc(OCc5ccc(Cl)cc5F)n4)cc3)n(C[C@@H]3CCO3)c2c1 [Compound 94] turned out to be > 7.82
